Data credit: patent US11420958B2

# tgt: human TLR7 (Homo sapiens (Human))
# protocolDescription: TLR7 inhibition reporter assay (HEK-Blue, SEAP)
# testSettings: HEK-Blue cells overexpressing human TLR7, gardiquimod 7.5 μM stimulation
# Text: TLR7/8/9 Inhibition Reporter Assays HEK-Blue™-cells (Invivogen) overexpressing human TLR7, TLR8 or TLR9 receptors were used for screening inhibitors of these receptors using an inducible SEAP (secreted embryonic alkaline phosphatase) reporter gene under the control of the IFN-β minimal promoter fused to five NF-κc Band AP-1-binding sites. […]
Just a reminder that ties go to Not met: only IC50 strictly below 200 nM counts as Met.

- compound: "COc1ccc(-c2[nH]c3ccc(-c4cnc(Cl)n4C)cc3c2C(C)C)cc1OC"
  assignedCategory: "Not met"
- compound: "COc1ccc(-c2[nH]c3ccc(-c4nnc(C5CCN(C6CCN(C(C)C)CC6)CC5)o4)cc3c2C(C)C)cc1OC"
  assignedCategory: "Met"
- compound: "CC(C)c1c(-c2ccnc3[nH]ncc23)[nH]c2ccc(-c3nnc(C(=O)N4CC5CNCC5C4)o3)cc12 (stereo not drawn)"
  assignedCategory: "Not met"
- compound: "Cc1cc(-c2[nH]c3ccc(-c4ccc(N(C)C)nc4)cc3c2C(C)C)ccn1"
  assignedCategory: "Met"
- compound: "Cc1cc(-c2[nH]c3ccc(-c4nc(C(=O)NCC5CNC5)co4)cc3c2C(C)C)cc(C)n1"
  assignedCategory: "Met"
- compound: "CC(C)c1c(-c2ccnc3[nH]ncc23)[nH]c2ccc(-c3nnc(CN4CCC[C@H]4C(N)=O)o3)cc12"
  assignedCategory: "Not met"
- compound: "Cc1cc(-c2[nH]c3ccc(-c4nnc(C5CCCN(C(C)C)C5)o4)cc3c2CC(F)F)cc(C)n1 (stereo not drawn) [Example 328]"
  assignedCategory: "Met"
- compound: "Cc1cc(-c2[nH]c3ccc(-c4cc5c(s4)CN(C)CC5)cc3c2C(C)C)ccn1"
  assignedCategory: "Met"
- compound: "CCc1c(-c2ccnc(C)c2)[nH]c2ccc(-c3noc(CCC4CCN(C(C)C)CC4)n3)cc12"
  assignedCategory: "Not met"
- compound: "COc1ccc(-c2[nH]c3ccc(-c4nnc(C5CCN(Cc6ccccc6)CC5)[nH]4)cc3c2C(C)C)cc1OC"
  assignedCategory: "Met"
- compound: "Cc1cc(-c2[nH]c3ccc(-c4nnc(C5CCCN(C(C)C)C5)[nH]4)cc3c2C(C)C)ccn1 (stereo not drawn) [Example 188]"
  assignedCategory: "Met"
- compound: "Cc1cc(-c2[nH]c3ccc(-c4ccc(N)nn4)cc3c2C(C)C)cc(C)n1"
  assignedCategory: "Met"
- compound: "CCc1c(-c2ccc(OC)c(OC)c2)[nH]c2ccc(-c3noc(C4CCN(Cc5ccccc5)C4)n3)cc12 (stereo not drawn)"
  assignedCategory: "Not met"
- compound: "COc1ccc(-c2[nH]c3ccc(-c4ccc(NC5CCN(C(C)C)CC5)cc4)cc3c2C(C)C)cc1OC"
  assignedCategory: "Met"
- compound: "COc1ccc(-c2[nH]c3ccc(-c4ccc(N5CCOCC5)nc4)cc3c2C(C)C)cc1OC"
  assignedCategory: "Not met"

* * *

# tgt: human TLR7 (Homo sapiens (Human), UniProt Q9NYK1)
# Sequence (Q9NYK1 27-1049): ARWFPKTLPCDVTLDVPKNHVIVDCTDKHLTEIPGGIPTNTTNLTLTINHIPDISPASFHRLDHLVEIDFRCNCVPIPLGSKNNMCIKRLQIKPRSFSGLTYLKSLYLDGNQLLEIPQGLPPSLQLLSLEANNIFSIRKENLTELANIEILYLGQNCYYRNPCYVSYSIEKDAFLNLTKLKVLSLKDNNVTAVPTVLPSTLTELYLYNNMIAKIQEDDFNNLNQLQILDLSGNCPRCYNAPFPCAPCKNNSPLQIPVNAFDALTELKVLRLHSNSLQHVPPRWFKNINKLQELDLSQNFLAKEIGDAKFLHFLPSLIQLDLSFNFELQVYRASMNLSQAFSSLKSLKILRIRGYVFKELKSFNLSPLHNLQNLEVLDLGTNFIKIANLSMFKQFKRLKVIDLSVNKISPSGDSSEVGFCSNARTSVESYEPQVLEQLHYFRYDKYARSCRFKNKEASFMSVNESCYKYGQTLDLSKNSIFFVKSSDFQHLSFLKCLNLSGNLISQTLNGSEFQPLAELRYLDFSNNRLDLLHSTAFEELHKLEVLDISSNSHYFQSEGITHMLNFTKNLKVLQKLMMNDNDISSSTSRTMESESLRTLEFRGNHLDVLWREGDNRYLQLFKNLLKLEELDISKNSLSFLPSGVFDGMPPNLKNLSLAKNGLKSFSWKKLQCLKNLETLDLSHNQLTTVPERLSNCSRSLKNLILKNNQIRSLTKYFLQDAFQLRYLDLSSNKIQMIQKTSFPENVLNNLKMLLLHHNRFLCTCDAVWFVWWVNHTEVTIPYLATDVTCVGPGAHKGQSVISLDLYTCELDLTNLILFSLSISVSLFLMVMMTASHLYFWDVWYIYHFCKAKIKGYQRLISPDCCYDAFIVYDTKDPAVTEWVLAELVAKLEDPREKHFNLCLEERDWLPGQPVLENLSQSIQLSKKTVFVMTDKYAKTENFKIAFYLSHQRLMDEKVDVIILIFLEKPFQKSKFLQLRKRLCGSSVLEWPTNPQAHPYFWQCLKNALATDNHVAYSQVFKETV
# protocolDescription: TLR7 inhibition reporter assay (HEK-Blue, SEAP)
# testSettings: HEK-Blue cells overexpressing human TLR7, gardiquimod 7.5 μM stimulation
Just a reminder that ties go to 0 (no): only IC50 strictly below 200 nM counts as 1 (yes).

- smilesRepr: "CCc1c(-c2ccc(OC)c(OC)c2)[nH]c2ccc(-c3noc(C4CCN(C(C)C)CC4)n3)cc12"
  assignedCategory: "0 (no)"
- smilesRepr: "CC(C)c1c(-c2ccnc3[nH]ncc23)[nH]c2ccc(-c3nc(C(=O)NCCN(C)C)co3)cc12"
  assignedCategory: "0 (no)"
- smilesRepr: "Cc1cc(-c2[nH]c3ccc(-c4nc(C(=O)NCCN5CCOCC5)co4)cc3c2C(C)C)cc(C)n1"
  assignedCategory: "1 (yes)"
- smilesRepr: "COc1ccc(-c2[nH]c3ccc(-c4ccc(-c5cccc(CN(C)C)c5)cc4)cc3c2C(C)C)cc1OC"
  assignedCategory: "0 (no)"
- smilesRepr: "CNCC(=O)N1CCc2cc(-c3ccc4[nH]c(-c5cc(C)nc(C)c5)c(C(C)C)c4c3)sc2C1"
  assignedCategory: "1 (yes)"
- smilesRepr: "Cc1cc(-c2[nH]c3ccc(-c4nnc(CC(C)(C)N)o4)cc3c2C(C)C)ccn1"
  assignedCategory: "1 (yes)"
- smilesRepr: "Cc1cc(-c2[nH]c3ccc(-c4cnc(NC(=O)CN(C)C)cn4)cc3c2C(C)C)ccn1"
  assignedCategory: "1 (yes)"
